Catalogue of EC50 values
# TARGET OF ASSAY: T1, mouse GPNMB endogenously expressed on B16F10 cells (mouse, UniProt Q99P91 23-574)
# T1 construct: whole, on cells; also called moGPNMB
# T1 sequence (looked up): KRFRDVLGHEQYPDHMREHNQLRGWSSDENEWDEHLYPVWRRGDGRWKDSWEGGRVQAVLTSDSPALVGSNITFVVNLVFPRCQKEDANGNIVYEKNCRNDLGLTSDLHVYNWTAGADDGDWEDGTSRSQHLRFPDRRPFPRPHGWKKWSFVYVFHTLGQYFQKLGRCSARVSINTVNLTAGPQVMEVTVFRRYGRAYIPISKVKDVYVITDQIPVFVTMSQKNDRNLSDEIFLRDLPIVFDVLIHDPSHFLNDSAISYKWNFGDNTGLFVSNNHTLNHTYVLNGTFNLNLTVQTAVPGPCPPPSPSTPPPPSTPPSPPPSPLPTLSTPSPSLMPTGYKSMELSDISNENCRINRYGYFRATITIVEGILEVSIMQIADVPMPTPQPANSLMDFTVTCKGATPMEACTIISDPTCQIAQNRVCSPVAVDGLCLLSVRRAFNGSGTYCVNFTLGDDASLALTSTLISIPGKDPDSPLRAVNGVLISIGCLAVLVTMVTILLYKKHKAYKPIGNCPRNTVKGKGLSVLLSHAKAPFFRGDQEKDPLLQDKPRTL
# ASSAY TEXT: FACS titration, B16F10 cells
TEST READOUT: EC50

[[record]]
binder = "anti-GPNMB antibody GPN-88 (antibody, V domains shown) VH: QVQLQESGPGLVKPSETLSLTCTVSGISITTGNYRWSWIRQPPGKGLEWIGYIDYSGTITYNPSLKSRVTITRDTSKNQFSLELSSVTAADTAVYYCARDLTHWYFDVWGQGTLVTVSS VL: DIVMTQSPDSLAVSLGERATINCKSSRSVDYYGIGFLNWYQQKPGQPPKLLIYATSHQGSGVPDRFSGSGSGTDFTLTISSLQAEDVAVYYCQQQKHVPPTFGGGTKVEIK"
result = "0.262 nM"

[[record]]
binder = "anti-GPNMB antibody GPN-89 (antibody, V domains shown) VH: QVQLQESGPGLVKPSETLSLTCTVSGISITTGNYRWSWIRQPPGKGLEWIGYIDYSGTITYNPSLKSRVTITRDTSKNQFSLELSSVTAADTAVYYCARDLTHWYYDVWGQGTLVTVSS VL: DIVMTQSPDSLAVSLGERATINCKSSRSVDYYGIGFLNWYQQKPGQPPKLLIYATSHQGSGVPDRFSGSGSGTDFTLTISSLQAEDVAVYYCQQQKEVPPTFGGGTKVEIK"
result = "0.443 nM"

[[record]]
binder = "anti-GPNMB antibody GPN-90 (antibody, V domains shown) VH: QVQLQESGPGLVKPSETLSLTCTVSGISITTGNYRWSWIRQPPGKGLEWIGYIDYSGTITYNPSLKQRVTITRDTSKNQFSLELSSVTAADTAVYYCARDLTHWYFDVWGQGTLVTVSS VL: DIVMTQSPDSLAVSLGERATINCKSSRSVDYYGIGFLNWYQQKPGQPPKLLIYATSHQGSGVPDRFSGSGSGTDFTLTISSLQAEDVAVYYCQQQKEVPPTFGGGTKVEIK"
result = "0.416 nM"


Data provenance is patent US20250270343A1.
